Quick record of Kd values for RmlT (Listeria monocytogenes, UniProt Q8Y838).
measured.metric: Kd

smiles.string | value
Cc1cn([C@H]2C[C@H](O)[C@@H](COP(=O)(O)OP(=O)(O)O)O2)c(=O)[nH]c1=O | ~50 µM
Cc1cn([C@H]2C[C@H](O)[C@@H](COP(=O)(O)OP(=O)(O)O[C@H]3O[C@@H](C)[C@H](O)[C@@H](O)[C@H]3O)O2)c(=O)[nH]c1=O | ~13 µM
Cc1cn([C@H]2C[C@H](O)[C@@H](COP(=O)(O)OP(=O)(O)O[C@H]3O[C@H](CO)[C@@H](O)[C@H](O)[C@H]3O)O2)c(=O)[nH]c1=O | ~10 µM

Reference source: paper PMC11697029
